The measured values listed here are drawn from PubChem BioAssay (NCI).

# Test system: UO-31 renal
# Assay Explanation: NCI-60 one-dose screen, 48 h
# Condition Info: 10 µM unless noted
The panel holds about 83,000 compounds, 20% with a hit somewhere; the sample as a whole holds those more often. Activity calls are given as the source filed them. Rule for the calls: active = growth percent below 10; inactive = the rest.
Classes used: active, inactive

{"Compound": "S=c1[nH]c(=S)c2c(-c3ccccc3)c(-c3ccccc3)oc2[nH]1", "Label Value": "inactive"}
{"Compound": "COc1cc(-c2nc3sccn3c2-c2ccnc(NCCNS(=O)(=O)c3ccc(Cl)cc3)n2)ccc1F", "Label Value": "active"}
{"Compound": "Clc1c(Cl)[n+](Cc2ccc3ccccc3c2)cn1Cc1ccc2ccccc2c1", "Label Value": "inactive"}
{"Compound": "Cn1cc(-c2nn3cc(-c4cccs4)nc3s2)c2cc(F)ccc21", "Label Value": "inactive"}
{"Compound": "COC(=O)c1c2c(n3ccccc13)C(=O)c1ccccc1C2=O", "Label Value": "inactive"}
{"Compound": "Cc1[nH]c(C2CC(c3ccc(C(F)(F)F)c(F)c3)=NN2c2ccccc2)c(C)c1C(=O)NCC(F)(F)F (stereo not given)", "Label Value": "inactive"}
{"Compound": "O=C(CI)NC(=O)NC(=O)NCc1ccccc1", "Label Value": "active"}
{"Compound": "O=c1nc(-c2ccccc2)c2cc(-c3ccc(C(F)(F)F)nc3)ccc2[nH]1", "Label Value": "inactive"}
{"Compound": "O=C(Nc1ccccc1[N+](=O)[O-])c1ccc(Cl)c(Cl)c1", "Label Value": "inactive"}
{"Compound": "C=C(C)[C@@H]1CCC[C@]2(C(=O)N3CCN(C)CC3)CC[C@]3(C)[C@@H](CC[C@@H]4[C@@]5(C)CC/C(=N\\NC(=O)c6ccncc6)C(C)(C)[C@@H]5CC[C@]43C)[C@@H]12", "Label Value": "inactive"}
{"Compound": "COc1cccc(CCNc2ncnc3c2ncn3Cc2nnc3c4ccccc4c(Cl)nn23)c1", "Label Value": "inactive"}
{"Compound": "Cc1ccc(-c2nc(-c3cn(C)c4ncccc34)cs2)cc1", "Label Value": "inactive"}
{"Compound": "O=C1/C=C/[C@@H](O)[C@@H]2C[C@@H](O)C[C@H]2/C=C/CCC[C@@H](O)CCO1", "Label Value": "inactive"}
{"Compound": "COc1ccc2nc(Cl)c(/C=C3\\CC(c4ccccc4)=NN(c4ccccc4)C3=O)cc2c1", "Label Value": "inactive"}
{"Compound": "CNCc1cccc2c1OCCOCCOCCNS(=O)(=O)c1ccc(cc1)-c1cnc(N)c(n1)C(=O)N2", "Label Value": "inactive"}
{"Compound": "COc1ccc(/C=C(/c2ccccc2)[N+](=O)[O-])c(OC)c1", "Label Value": "active"}
{"Compound": "O=[N+]([O-])c1ccc(-c2cn3nc(-c4c[nH]c5ccccc45)sc3n2)cc1", "Label Value": "inactive"}
{"Compound": "COC1=C(C)C(=O)N2[C@@H]1[C@H](c1ccccc1)OC21C=CC(=O)C=C1", "Label Value": "active"}
{"Compound": "Cc1ccc(/C=C/C(=O)Nc2ncc(Cc3ccc(F)cc3)s2)o1", "Label Value": "inactive"}
{"Compound": "COc1ccc(C2CC(c3cc(OC)c(OC)c(OC)c3)=NO2)cc1OCCCCOc1cc2c(cc1OC)C(=O)N1CCC[C@H]1C=N2 (stereo not given in full)", "Label Value": "inactive"}
{"Compound": "COc1cc(C(=O)c2c(-c3ccccc3)oc3c(OC)cccc23)cc(OC)c1OC", "Label Value": "inactive"}
{"Compound": "N#Cc1c(Nc2ccc(N3CCOCC3)cc2)nc(SCC(=O)c2ccc(Br)cc2)nc1-c1ccccc1", "Label Value": "inactive"}
{"Compound": "O=C(O)c1cn(C2CC2)c2cc(N3CCN(C(=O)Nc4nc(-c5ccc(Br)cc5)cs4)CC3)c(F)cc2c1=O", "Label Value": "inactive"}
{"Compound": "Cc1c(Cl)cccc1C(=O)Nc1nc2c(s1)CN(C(=O)c1ccc(C(F)(F)F)cc1)CC2", "Label Value": "inactive"}
{"Compound": "C=CCOC(=O)C1=C(C)N(CC)C(=O)NC1c1c(Cl)n(C)c2ccccc12 (stereo not given)", "Label Value": "inactive"}

----------
# Tested on: MCF7 breast
# Assay Explanation: NCI-60 one-dose screen, 48 h
# Condition Info: 10 µM unless noted
# Description: Growth inhibition of the MCF7 human tumor cell line is measured as a screen for anti-cancer activity. Cells are grown in 96 well plates and exposed to the test compound for 48 hours. Compounds are tested at a single concentration, which is 10^-5 M for most compounds. The reported endpoint is percent growth (GI% or GIPRCNT), where numbers from 0 - 100% represent growth inhibition, and numbers from -100% - 0 represent cell death. For example, a value of 40 represents 60% growth inhibition. […]
Compounds without any hit were thinned out: in the full panel of roughly 83,000, 20% have a hit. Calls of active or inactive are those of the source. How the source made its calls: active means growth percent below 10; inactive means the rest.
Classes used: active, inactive

{"Smiles": "C=C1C(=O)O[C@H]2[C@H]1CC/C(COC(=O)CSCSCC(=O)OC/C1=C/CC[C@@]3(C)O[C@H]3[C@H]3OC(=O)C(=C)[C@@H]3CC1)=C\\CC[C@@]1(C)O[C@@H]21", "Label Value": "inactive"}
{"Smiles": "COc1ccc(NC(=O)Nc2ccc(OCCCCCC(=O)NO)cc2)cc1", "Label Value": "inactive"}
{"Smiles": "CN(C)c1ccc(-c2nc(-c3ccccc3)c(-c3ccccc3)[nH]2)cc1", "Label Value": "inactive"}
{"Smiles": "C/C(Cc1ccc(Cl)cc1)=C(\\c1ccc(OCCCN(C)C)cc1)c1ccc(OC(=O)Cc2ccccc2)cc1", "Label Value": "inactive"}
{"Smiles": "NNCCc1ccc(NC(=O)CCCc2ccc(C(=O)Nc3ccccc3N)cc2)cc1", "Label Value": "inactive"}
{"Smiles": "CN(CCCNC(=O)Cc1ccc2ccc3cccc4ccc1c2c34)CCCNc1cc(-c2ccc3ccccc3c2)nc2ccccc12", "Label Value": "active"}
{"Smiles": "FC(F)(F)c1ccc(Cn2cc(CSc3nc4ccccc4s3)nn2)cc1", "Label Value": "inactive"}

----------
# Test system: COLO 205 colon
# Assay Explanation: NCI-60 one-dose screen, 48 h
# Condition Info: 10 µM unless noted
# Procedure: Cells are grown in 96 well plates and exposed to the test compound for 48 hours. Compounds are tested at a single concentration, which is 10^-5 M for most compounds. The reported endpoint is percent growth (GI% or GIPRCNT), where numbers from 0 - 100% represent growth inhibition, and numbers from -100% - 0 represent cell death. For example, a value of 40 represents 60% growth inhibition. A value of 0 means no net growth occurred over the course of the experiment. […]
About 83,000 compounds went through this panel and 20% of them were active in at least one assay; those are over-represented in the sample as a whole. Activity calls are given as the source filed them. The calls were made as follows: active = growth percent below 10; inactive = the rest.
Classes used: true (1) (active), false (0) (inactive)

{"Smiles": "Cc1ccc(S(=O)(=O)Oc2ccc3sc4cccc(NCCN(C)C)c4c(=O)c3c2)cc1", "Label Value": "true (1)"}
{"Smiles": "Cc1cc(Nc2ccc(C(=O)N3CCCC3)cc2)nc(NCCCNc2ccnc3cc(Cl)ccc23)n1", "Label Value": "false (0)"}
{"Smiles": "O=C(CI)NC(=O)NC(=O)NCc1ccccc1", "Label Value": "true (1)"}

----------
# Test system: HOP-92 NSCLC
# Assay Explanation: NCI-60 one-dose screen, 48 h
# Condition Info: 10 µM unless noted
The panel holds about 83,000 compounds, 20% with a hit somewhere; the sample as a whole holds those more often. Calls of active or inactive are those of the source. The calls were made as follows: active = growth percent below 10; inactive = the rest.
Outcome codes: 1 for active, 0 for inactive

{"Compound": "COc1ccc2nc(Cl)c(/C=C3\\CC(c4ccccc4)=NN(c4ccccc4)C3=O)cc2c1", "System Under Test": "HOP-92 NSCLC", "Label Value": 1}
{"Compound": "CCc1n(Cc2ccc3ccccc3n2)cc[n+]1Cc1ccc2ccccc2n1", "System Under Test": "HOP-92 NSCLC", "Label Value": 1}
{"Compound": "COc1cc(C(=O)c2c(-c3ccccc3)oc3c(OC)cccc23)cc(OC)c1OC", "System Under Test": "HOP-92 NSCLC", "Label Value": 1}
{"Compound": "COc1ccc(CCN(CC(=O)N(CC(N)=O)C2CCC[C@@H]2OCc2ccccc2)C(=O)CN(C(=O)CN(CCc2ccc(Cl)cc2)C(=O)CN(C(=O)CN(C)Cc2ccccc2F)[C@H](C)C2CCCCC2)[C@H](C)C2CCCCC2)cc1OC (stereo partly drawn)", "System Under Test": "HOP-92 NSCLC", "Label Value": 0}
{"Compound": "CCOC(=O)C1=C(C)C(Cl)=N/C1=C\\c1[nH]c(Cl)c(C)c1C(=O)OCC", "System Under Test": "HOP-92 NSCLC", "Label Value": 0}
{"Compound": "CCN(CC)c1ccc(CNc2cc(C)nc3ccccc23)cc1", "System Under Test": "HOP-92 NSCLC", "Label Value": 0}
{"Compound": "CNC(=O)c1cc(Oc2ccc3c(c2)sc2nc(-c4ccc(OC)cc4)cn23)ccn1", "System Under Test": "HOP-92 NSCLC", "Label Value": 0}
{"Compound": "O=[N+]([O-])c1cc(NS(=O)(=O)c2ccccc2)ccc1NS(=O)(=O)c1ccccc1", "System Under Test": "HOP-92 NSCLC", "Label Value": 0}
